// data source = the supplement of paper PMC10567573

B1: KLHL12 (parent)
chain: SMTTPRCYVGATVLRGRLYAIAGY

variants of: B1; assay: protein stability index of a GFP-peptide fusion (GPS, HEK-293T) (PSI 1-6); higher = more stable; details: c terminus: a fixed tail appended;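 note: lentivirally expressed fusions sorted by FACS into six bins by GFP to DsRed ratio, PSI derived from sequencing read proportions per bin multiplied by bin number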
Threshold rule: protein stability index greater than or equal to 2 is Y; below that, N.

MUT | CLASS_NAME
G23K | N
M2Y | Y
A20W | Y
I21L | Y
T3H | Y
T3P | N
Y8Q | Y
Y19K | N
I21G | N
R15Y | Y
G23L | Y
S1L | Y
R15L | Y
I21R | N
T12Y | Y
G16E | N
T12S | N
V9K | N
A22F | Y
A20D | N
